FYI, the data here is from ChEMBL document CHEMBL6121026.

# test-target: RAC-alpha serine/threonine-protein kinase (Homo sapiens, UniProt P31749)
# Sequence (P31749 whole entry, the tested form may be a part): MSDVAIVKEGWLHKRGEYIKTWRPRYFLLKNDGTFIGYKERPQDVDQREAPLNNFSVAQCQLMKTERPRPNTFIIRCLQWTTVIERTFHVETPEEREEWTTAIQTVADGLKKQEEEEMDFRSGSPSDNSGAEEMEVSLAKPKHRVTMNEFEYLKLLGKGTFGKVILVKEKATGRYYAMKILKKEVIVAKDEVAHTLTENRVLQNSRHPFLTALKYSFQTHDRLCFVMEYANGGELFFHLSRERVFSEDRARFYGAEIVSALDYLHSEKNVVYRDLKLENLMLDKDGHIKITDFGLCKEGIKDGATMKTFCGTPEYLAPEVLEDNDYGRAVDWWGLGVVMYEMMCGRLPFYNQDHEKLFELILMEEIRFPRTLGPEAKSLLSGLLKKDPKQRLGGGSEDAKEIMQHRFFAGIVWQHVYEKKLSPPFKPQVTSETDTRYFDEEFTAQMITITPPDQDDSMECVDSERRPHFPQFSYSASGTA
# assay-info: Inhibition of Nano Luc-fused wild type AKT1 (unknown origin) expressed in HEK293 cells using luciferase substrate preincubated for 2 hrs followed by substrate added by NanoBRET Live cell target engagement assay
# Assay type: cell-based
pIC50: −log10 of the molar value.
Each entry below lists one item and its recorded pIC50 value.

Consider the molecule Nc1ncccc1-c1nc2ccc(-c3ccccc3)nc2n1-c1ccc2c(c1)CC[C@@H]2NC(=O)c1cc(C=O)c2[nH]ncc2c1 and give its recorded pIC50.
≥ 7.00

Specify pIC50 for CN1CCN(c2cccc(-c3ccc4nc(-c5cccnc5N)n(-c5ccc6c(c5)CC[C@@H]6NC(=O)c5ccc(O)c(C=O)c5)c4n3)c2)CC1 and stop.
≥ 8.00

Item Nc1ncccc1-c1nc2ccc(-c3ccccc3F)nc2n1-c1ccc2c(c1)CC[C@@H]2NC(=O)c1ccc(O)c(C=O)c1 : provide pIC50
≥ 7.00

For the molecule Nc1ncccc1-c1nc2ccc(-n3cccn3)nc2n1-c1ccc2c(c1)CC[C@@H]2NC(=O)c1cc(C=O)c(O)c(F)c1F , report pIC50.
≥ 7.00

Please look at this molecule and report its pIC50: Nc1ncccc1-c1nc2ccc(-c3ccccc3)nc2n1-c1ccc2c(c1)CC[C@@H]2NC(=O)c1cc(C=O)c(O)c(F)c1F
≥ 7.00

====

# test-target: RAC-beta serine/threonine-protein kinase (Homo sapiens)
# assay-info: Inhibition of Nano Luc-fused wild type AKT2 (unknown origin) expressed in HEK293 cells using luciferase substrate preincubated for 2 hrs followed by substrate added by NanoBRET Live cell target engagement assay
# reported IC50; entries follow

Answered cases to consult:
1) COc1cnn(-c2ccc3nc(-c4cccnc4N)n(-c4ccc5c(c4)CC[C@@H]5NC(=O)c4ccc(O)c(C=O)c4)c3n2)c1    ≥ 2000 nM
2) Nc1ncccc1-c1nc2ccc(-c3ccccc3F)nc2n1-c1ccc2c(c1)CC[C@@H]2NC(=O)c1ccc(O)c(C=O)c1    ≤ 100 nM
3) CN1CCN(c2cccc(-c3ccc4nc(-c5cccnc5N)n(-c5ccc6c(c5)CC[C@@H]6NC(=O)c5ccc(O)c(C=O)c5)c4n3)c2)CC1    ≤ 10 nM

Here's the next entry for you.
# lookup: RAC-beta serine/threonine-protein kinase (Homo sapiens) IC50, key = Nc1ncccc1-c1nc2ccc(-c3ccccc3)nc2n1-c1ccc2c(c1)CC[C@@H]2NC(=O)c1cc(C=O)c2[nH]ncc2c1
≤ 100 nM

====

# test-target: RAC-beta serine/threonine-protein kinase (Homo sapiens, UniProt P31751)
# Sequence (P31751 whole entry, the tested form may be a part): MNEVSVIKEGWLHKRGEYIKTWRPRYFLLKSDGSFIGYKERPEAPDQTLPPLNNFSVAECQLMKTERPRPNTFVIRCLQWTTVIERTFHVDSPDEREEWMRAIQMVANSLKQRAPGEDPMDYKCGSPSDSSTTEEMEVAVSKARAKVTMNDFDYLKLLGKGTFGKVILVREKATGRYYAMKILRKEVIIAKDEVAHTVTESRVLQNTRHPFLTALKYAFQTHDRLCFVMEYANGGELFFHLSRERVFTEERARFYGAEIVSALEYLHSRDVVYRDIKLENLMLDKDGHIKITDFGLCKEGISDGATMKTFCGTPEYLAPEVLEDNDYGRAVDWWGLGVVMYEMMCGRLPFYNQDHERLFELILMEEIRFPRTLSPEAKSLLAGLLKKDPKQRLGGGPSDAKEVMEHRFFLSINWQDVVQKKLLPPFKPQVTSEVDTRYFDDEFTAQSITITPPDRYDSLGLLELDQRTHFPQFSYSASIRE
# assay-info: Inhibition of Nano Luc-fused wild type AKT2 (unknown origin) expressed in HEK293 cells using luciferase substrate preincubated for 2 hrs followed by substrate added by NanoBRET Live cell target engagement assay
# Type: cell-based
pIC50: −log10 of the molar value.
# Lookup of reported pIC50 keyed by entry

Field: example entries. Status: answers known.
1) CS(=O)(=O)Nc1ccc(C(=O)N[C@H]2CCc3cc(-n4c(-c5cccnc5N)nc5ccc(-n6cccn6)nc54)ccc32)cc1C=O    ≤ 5.70
2) CC(=O)Nc1ccc(C(=O)N[C@H]2CCc3cc(-n4c(-c5cccnc5N)nc5ccc(-c6ccccc6)nc54)ccc32)cc1C=O    ≥ 7.00
3) Nc1ncccc1-c1nc2ccc(-c3ccccc3)nc2n1-c1ccc2c(c1)CC[C@@H]2NC(=O)c1cc(C=O)c(O)c(F)c1F    ≥ 7.00

The record that follows has no pIC50 shown yet.
Provide pIC50, tested on RAC-beta serine/threonine-protein kinase (Homo sapiens, UniProt P31751), for Nc1ncccc1-c1nc2ccc(-n3cccn3)nc2n1-c1ccc2c(c1)CC[C@@H]2NC(=O)c1cc(C=O)c(O)c(F)c1F .
≥ 7.00

====

# test-target: RAC-alpha serine/threonine-protein kinase (Homo sapiens)
# assay-info: Inhibition of Nano Luc-fused wild type AKT1 (unknown origin) expressed in HEK293 cells using luciferase substrate preincubated for 2 hrs followed by substrate added by NanoBRET Live cell target engagement assay
pIC50: −log10 of the molar value.
measurement-kind: pIC50

Answered examples (2):
1) CC(=O)Nc1ccc(C(=O)N[C@H]2CCc3cc(-n4c(-c5cccnc5N)nc5ccc(-c6ccccc6)nc54)ccc32)cc1C=O    ≥ 8.00
2) COc1cnn(-c2ccc3nc(-c4cccnc4N)n(-c4ccc5c(c4)CC[C@@H]5NC(=O)c4ccc(O)c(C=O)c4)c3n2)c1    ≥ 7.00

With those in mind, consider the next compound.
Give pIC50; test system RAC-alpha serine/threonine-protein kinase (Homo sapiens); compound CS(=O)(=O)Nc1ccc(C(=O)N[C@H]2CCc3cc(-n4c(-c5cccnc5N)nc5ccc(-n6cccn6)nc54)ccc32)cc1C=O
≥ 7.00
